Data provenance is patent US20230321253A1.

- Target Of Assay: KRAS-G12D protein (Homo sapiens, UniProt P01116, G12D)
- Construct: host or cells: Aspc-1 cells
- Sequence (P01116 1-188 isoform P01116-2 G12D): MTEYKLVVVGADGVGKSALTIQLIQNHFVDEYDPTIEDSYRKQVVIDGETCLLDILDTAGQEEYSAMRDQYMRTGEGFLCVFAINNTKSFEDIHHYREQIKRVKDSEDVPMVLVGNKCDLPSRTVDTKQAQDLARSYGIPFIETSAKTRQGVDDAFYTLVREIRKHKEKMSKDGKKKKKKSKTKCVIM
- Test: KRAS-G12D protein degradation study in Aspc-1 cells (western blot)
- Assay type: cell-based
- Assay Conditions: ASPC1, 24 h, Aspc-1 cells treated with 1 μM compound, 24 hours; read-out: Rate of protein degradation (KRAS^G12D)
- Experimental: Aspc-1 (Cobioer, CBP60546) cells in exponential growth phase were inoculated on a 6-well cell culture plate (Corning, 3516) at density of 1E6/well; and cells in the plate were cultured in 37° C. incubator containing 5% carbon dioxide. […] The supernatant was transferred into a new 1.5 mL centrifuge tube, and protein concentration was measured with BCA protein detection kit (Thermo Fisher, 23225). KRAS-G12D protein level was assessed by western blot. […]
Recorded Endpoint: inhibition at 1 µM

Form: compound = C#Cc1c(F)ccc2cc(O)cc(-c3ncc4c(N5CC6CCC(C5)N6)nc(OCCCN5CCN(C(=O)CN6CCC(c7ccc8c(C9CCC(=O)NC9=O)nn(C)c8c7)CC6)CC5)nc4c3F)c12 (centres unmarked) [Compound 33] ; inhibition at 1 µM = > 60%

Form: compound = C#Cc1c(F)ccc2cc(O)cc(-c3ncc4c(N5CC6CCC(C5)N6)nc(OC5CCN(CCCCCCCCCCCCCC(=O)N[C@H](C(=O)N6C[C@H](O)C[C@H]6C(=O)NCc6ccc(-c7scnc7C)cc6)C(C)(C)C)CC5)nc4c3F)c12 [Compound 47] ; inhibition at 1 µM = 31 to 60%

Form: compound = C#Cc1c(F)ccc2cc(O)cc(-c3ncc4c(N5CC6CCC(C5)N6)nc(OCCCN5CCN(CC(=O)N6CCN(c7cccc8c7C(=O)N(C7CCC(=O)NC7=O)C8=O)CC6)CC5)nc4c3F)c12 (centres unmarked) [Compound 62] ; inhibition at 1 µM = ≤ 10%

Form: compound = C#Cc1c(F)ccc2cc(O)cc(-c3ncc4c(N5CC6CCC(C5)N6)nc(OCCCN5CCC(C(=O)N6CCC(c7ccc8c(C9CCC(=O)NC9=O)nn(C)c8c7)CC6)CC5)nc4c3F)c12 (centres unmarked) [Compound 72] ; inhibition at 1 µM = > 60%

Form: compound = C#Cc1c(F)ccc2cc(O)cc(-c3ncc4c(N5CC6CCC(C5)N6)nc(OCCCN5CCN(C(=O)CN6CCN(c7cccc8c7C(=O)N(C7CCC(=O)NC7=O)C8=O)CC6)CC5)nc4c3F)c12 (centres unmarked) [Compound 61] ; inhibition at 1 µM = ≤ 10%

---

- Target Of Assay: KRAS-G12D protein (Homo sapiens, UniProt P01116, G12D)
- Construct: host or cells: Aspc-1 cells
- Test: KRAS-G12D protein degradation study in Aspc-1 cells (western blot)
- Format: cell-based
- Assay Conditions: ASPC1, 24 h, Aspc-1 cells treated with 50 nM compound, 24 hours; read-out: Rate of degradation (KRAS^G12D)
Recorded Endpoint: inhibition at 0.05 µM

Form: molecule = C#Cc1c(F)ccc2cc(O)cc(-c3ncc4c(N5CC6CCC(C5)N6)nc(OCC5(CN6CC7(CC(N8CCC(c9ccc%10c(C%11CCC(=O)NC%11=O)nn(C)c%10c9)CC8)C7)C6)CC5)nc4c3F)c12 (stereo not drawn) [Compound 169] ; inhibition at 0.05 µM = > 60%

Form: molecule = C#Cc1c(F)ccc2cc(O)cc(-c3ncc4c(N5CC6CCC(C5)N6)nc(OCC5(CN6CCC(CN7CCC(c8ccc9c%10c(cccc8%10)C(=O)N9C8CCC(=O)NC8=O)CC7)CC6)CC5)nc4c3F)c12 (stereo not drawn) [Compound 168] ; inhibition at 0.05 µM = > 60%

Form: molecule = C#Cc1c(F)ccc2cc(O)cc(-c3ncc4c(N5CC6CCC(C5)N6)nc(OCC5(CN6CCCN(C(=O)CN7CCC(c8ccc9c(C%10CCC(=O)NC%10=O)nn(C)c9c8)CC7)CC6)CC5)nc4c3F)c12 (stereo not drawn) [Compound 155] ; inhibition at 0.05 µM = > 60%

---

- Target Of Assay: KRAS-G12D protein (Homo sapiens, UniProt P01116, G12D)
- Construct: host or cells: Aspc-1 cells
- Test: KRAS-G12D protein degradation study in Aspc-1 cells (western blot)
- Format: cell-based
- Assay Conditions: ASPC1, 24 h, Aspc-1 cells treated with 0.1 μM compound, 24 hours; read-out: Rate of protein degradation (KRAS^G12D)
Recorded Endpoint: inhibition at 0.1 µM

Form: molecule = C#Cc1c(F)ccc2cc(O)cc(-c3ncc4c(N5CC6CCC(C5)N6)nc(OC5CCN(CCCCCCCCCCC(=O)N6CCN(C(=O)C[C@H](NC(=O)[C@@H]7C[C@@H](O)CN7C(=O)[C@@H](NC(=O)C7(F)CC7)C(C)(C)C)c7ccc(-c8scnc8C)cc7)CC6)CC5)nc4c3F)c12 [Compound 103] ; inhibition at 0.1 µM = ≤ 10%

Form: molecule = CCc1c(F)ccc2cc(O)cc(-c3ncc4c(N5CC6CCC(C5)N6)nc(OCC56CCCN5[C@@H](COC(=O)NCCCCC(=O)N[C@H](C(=O)N5C[C@H](O)C[C@H]5C(=O)N[C@@H](C)c5ccc(-c7scnc7C)cc5)C(C)(C)C)CC6)nc4c3F)c12 (stereo partly shown) [Compound 67] ; inhibition at 0.1 µM = ≤ 10%

Form: molecule = C#Cc1c(F)ccc2cc(O)cc(-c3ncc4c(N5CC6CCC(C5)N6)nc(OCC5(CN6CCC(C(=O)N7CCC8(CC7)CC(N7CCC(c9ccc%10c(C%11CCC(=O)NC%11=O)nn(C)c%10c9)CC7)C8)CC6)CC5)nc4c3F)c12 (stereo not shown) [Compound 111] ; inhibition at 0.1 µM = > 60%

Form: molecule = CCc1c(F)ccc2cc(O)cc(-c3ncc4c(N5CC6CCC(C5)N6)nc(OCC5(CN6CCC7(CC6)CC(N6CCC(c8ccc9c(C%10CCC(=O)NC%10=O)nn(C)c9c8)CC6)C7)CC5)nc4c3F)c12 (stereo not shown) [Compound 81] ; inhibition at 0.1 µM = 31 to 60%

---

- Target Of Assay: KRAS-G12D protein (Homo sapiens, UniProt P01116, G12D)
- Construct: host or cells: Aspc-1 cells
- Test: KRAS-G12D protein degradation study in Aspc-1 cells (western blot)
- Type: cell-based
- Assay Conditions: ASPC1, 24 h, Aspc-1 cells treated with 50 nM compound, 24 hours; read-out: Rate of degradation (KRAS^G12D)
Recorded Endpoint: inhibition at 0.05 µM

Form: compound = C#Cc1c(F)ccc2cc(O)cc(-c3ncc4c(N5CC6CCC(C5)N6)nc(OCC5(CN6CCC7(CC6)CC(N6CCN(c8ccc(NC9CCC(=O)NC9=O)cc8F)CC6)C7)CC5)nc4c3F)c12 (stereo not shown) [Compound 150] ; inhibition at 0.05 µM = > 60%

Form: compound = C#Cc1c(F)ccc2cc(O)cc(-c3ncc4c(N5CC6CCC(C5)N6)nc(OCC5(CN6CCC(CN7CCN(c8cccc9c8C(=O)N(C8CCC(=O)NC8=O)C9=O)CC7)CC6)CC5)nc4c3F)c12 (stereo not shown) [Compound 135] ; inhibition at 0.05 µM = 31 to 60%

Form: compound = C#Cc1c(F)ccc2cc(O)cc(-c3ncc4c(N5CC6CCC(C5)N6)nc(OCC5(CN6CCN(c7ccc(C(=O)NC8CCC(=O)NC8=O)nc7)CC6)CC5)nc4c3F)c12 (stereo not shown) [Compound 145] ; inhibition at 0.05 µM = ≤ 10%

Form: compound = C#Cc1c(F)ccc2cc(O)cc(-c3ncc4c(N5CC6CCC(C5)N6)nc(OCC5(CN6CC7CN(C(=O)CN8CCC(c9ccc%10c(C%11CCC(=O)NC%11=O)nn(C)c%10c9)CC8)CC7C6)CC5)nc4c3F)c12 (stereo not shown) [Compound 138] ; inhibition at 0.05 µM = > 60%

Form: compound = C#Cc1c(F)ccc2cc(O)cc(-c3ncc4c(N5CC6CCC(C5)N6)nc(OCC5(CN6CCC7(CCN(c8ccc(NC9CCC(=O)NC9=O)cc8F)CC7)C6)CC5)nc4c3F)c12 (stereo not shown) [Compound 125] ; inhibition at 0.05 µM = 31 to 60%

Form: compound = C#Cc1c(F)ccc2cc(O)cc(-c3ncc4c(N5CC6CCC(C5)N6)nc(OCC5(CN6CCC(CN7CCN(c8ccc(C(=O)NC9CCC(=O)NC9=O)nc8)CC7)CC6)CC5)nc4c3F)c12 (stereo not shown) [Compound 136] ; inhibition at 0.05 µM = ≤ 10%

Form: compound = CCc1c(F)ccc2cc(O)cc(-c3ncc4c(N5CC6CCC(C5)N6)nc(OCC5(CN6CCC7(CC6)CC(N6CCC(c8ccc9c(C%10CCC(=O)NC%10=O)nn(C)c9c8)CC6)C7)CC5)nc4c3F)c12 (stereo not shown) [Compound 160] ; inhibition at 0.05 µM = > 60%

Form: compound = Cn1nc(C2CCC(=O)NC2=O)c2ccc(C3CCN(CC(=O)N4CCN(CC5(COc6nc(N7CC8CCC(C7)N8)c7cnc(-c8cc(N)cc(Cl)c8C(F)(F)F)c(F)c7n6)CC5)CC4)CC3)cc21 (stereo not shown) [Compound 128] ; inhibition at 0.05 µM = > 60%

Form: compound = C#Cc1c(F)ccc2cc(O)cc(-c3ncc4c(N5CC6CCC(C5)N6)nc(OCC5(CN6CCC7(CC6)CC(N6CCN(c8ccc9c(c8)C(=O)N(C8CCC(=O)NC8=O)C9=O)CC6)C7)CC5)nc4c3F)c12 (stereo not shown) [Compound 154] ; inhibition at 0.05 µM = > 60%

Form: compound = C#Cc1c(F)ccc2cc(O)cc(-c3ncc4c(N5CC6CCC(C5)N6)nc(OCC5(CN6CCC(C7CCN(c8ccc(NC9CCC(=O)NC9=O)cc8F)CC7)CC6)CC5)nc4c3F)c12 (stereo not shown) [Compound 140] ; inhibition at 0.05 µM = 31 to 60%

Form: compound = C#Cc1c(F)ccc2cc(O)cc(-c3ncc4c(N5CC6CCC(C5)N6)nc(OCC5(CN6CCC7(CC6)CC(N6CCC(c8ccc9c%10c(cccc8%10)C(=O)N9C8CCC(=O)NC8=O)CC6)C7)CC5)nc4c3F)c12 (stereo not shown) [Compound 158] ; inhibition at 0.05 µM = > 60%

Form: compound = C#Cc1c(F)ccc2cc(O)cc(-c3ncc4c(N5CC6CCC(C5)N6)nc(OC5CCN(CCCCCNC(=O)CO[C@@H]6C[C@H](C)CC[C@H]6C(C)C)C5)nc4c3F)c12 (stereo partly shown) [Compound 143] ; inhibition at 0.05 µM = 11 to 30%

Form: compound = C#Cc1c(F)ccc2cc(O)cc(-c3ncc4c(N5CC6CCC(C5)N6)nc(OCC5(CN6CCC(N7CCC(c8ccc9c(C%10CCC(=O)NC%10=O)nn(C)c9c8)CC7)C(F)(F)C6)CC5)nc4c3F)c12 (stereo not shown) [Compound 139] ; inhibition at 0.05 µM = 31 to 60%

Form: compound = C#Cc1c(F)ccc2cc(O)cc(-c3ncc4c(N5CC6CCC(C5)N6)nc(OCC5(CN6CC(CN7CCC(c8ccc9c(C%10CCC(=O)NC%10=O)nn(C)c9c8)CC7)C6)CC5)nc4c3F)c12 (stereo not shown) [Compound 144] ; inhibition at 0.05 µM = 31 to 60%

Form: compound = C#Cc1c(F)ccc2cc(O)cc(-c3ncc4c(N5CC6CCC(C5)N6)nc(OCC5(CN6CCC(C(=O)N7CCC(N8CCC(c9ccc%10c(C%11CCC(=O)NC%11=O)nn(C)c%10c9)CC8)CC7)CC6)CC5)nc4c3F)c12 (stereo not shown) [Compound 129] ; inhibition at 0.05 µM = > 60%

Form: compound = C#Cc1c(F)ccc2cc(O)cc(-c3ncc4c(N5CC6CCC(C5)N6)nc(OC5CCN(CCOCCNC(=O)CO[C@@H]6C[C@H](C)CC[C@H]6C(C)C)C5)nc4c3F)c12 (stereo partly shown) [Compound 148] ; inhibition at 0.05 µM = ≤ 10%

Form: compound = C#Cc1c(F)ccc2cc(O)cc(-c3ncc4c(N5CC6CCC(C5)N6)nc(OCC5(CN6CCC7(CC6)CC(N6CCN(c8cc9c(cc8F)C(=O)N(C8CCC(=O)NC8=O)C9=O)CC6)C7)CC5)nc4c3F)c12 (stereo not shown) [Compound 152] ; inhibition at 0.05 µM = 31 to 60%

Form: compound = C#Cc1c(F)ccc2cc(O)cc(-c3ncc4c(N5CC6CCC(C5)N6)nc(OCC5(CN6CCC7(CC6)CC(N6CCC(c8cccc9c8CN(C8CCC(=O)NC8=O)C9=O)CC6)C7)CC5)nc4c3F)c12 (stereo not shown) [Compound 157] ; inhibition at 0.05 µM = 11 to 30%

Form: compound = C#Cc1c(F)ccc2cc(O)cc(-c3ncc4c(N5CC6CCC(C5)N6)nc(OCC5(CN6CCC(C(=O)Nc7ccc8c(C9CCC(=O)NC9=O)nn(C)c8c7)CC6)CC5)nc4c3F)c12 (stereo not shown) [Compound 159] ; inhibition at 0.05 µM = 31 to 60%
